SYSTEM_UNDER_TEST: F508delCFTR (Homo sapiens, UniProt P13569, DEL508-508)
Construct: expressed in transfected cells; host or cells: CFBE41o- human lung-derived epithelial cells (CFBE4lo-F508delCFTR-HRP), doxycycline-inducible
Sequence (P13569 with tags, fused parts or gaps DEL508-508): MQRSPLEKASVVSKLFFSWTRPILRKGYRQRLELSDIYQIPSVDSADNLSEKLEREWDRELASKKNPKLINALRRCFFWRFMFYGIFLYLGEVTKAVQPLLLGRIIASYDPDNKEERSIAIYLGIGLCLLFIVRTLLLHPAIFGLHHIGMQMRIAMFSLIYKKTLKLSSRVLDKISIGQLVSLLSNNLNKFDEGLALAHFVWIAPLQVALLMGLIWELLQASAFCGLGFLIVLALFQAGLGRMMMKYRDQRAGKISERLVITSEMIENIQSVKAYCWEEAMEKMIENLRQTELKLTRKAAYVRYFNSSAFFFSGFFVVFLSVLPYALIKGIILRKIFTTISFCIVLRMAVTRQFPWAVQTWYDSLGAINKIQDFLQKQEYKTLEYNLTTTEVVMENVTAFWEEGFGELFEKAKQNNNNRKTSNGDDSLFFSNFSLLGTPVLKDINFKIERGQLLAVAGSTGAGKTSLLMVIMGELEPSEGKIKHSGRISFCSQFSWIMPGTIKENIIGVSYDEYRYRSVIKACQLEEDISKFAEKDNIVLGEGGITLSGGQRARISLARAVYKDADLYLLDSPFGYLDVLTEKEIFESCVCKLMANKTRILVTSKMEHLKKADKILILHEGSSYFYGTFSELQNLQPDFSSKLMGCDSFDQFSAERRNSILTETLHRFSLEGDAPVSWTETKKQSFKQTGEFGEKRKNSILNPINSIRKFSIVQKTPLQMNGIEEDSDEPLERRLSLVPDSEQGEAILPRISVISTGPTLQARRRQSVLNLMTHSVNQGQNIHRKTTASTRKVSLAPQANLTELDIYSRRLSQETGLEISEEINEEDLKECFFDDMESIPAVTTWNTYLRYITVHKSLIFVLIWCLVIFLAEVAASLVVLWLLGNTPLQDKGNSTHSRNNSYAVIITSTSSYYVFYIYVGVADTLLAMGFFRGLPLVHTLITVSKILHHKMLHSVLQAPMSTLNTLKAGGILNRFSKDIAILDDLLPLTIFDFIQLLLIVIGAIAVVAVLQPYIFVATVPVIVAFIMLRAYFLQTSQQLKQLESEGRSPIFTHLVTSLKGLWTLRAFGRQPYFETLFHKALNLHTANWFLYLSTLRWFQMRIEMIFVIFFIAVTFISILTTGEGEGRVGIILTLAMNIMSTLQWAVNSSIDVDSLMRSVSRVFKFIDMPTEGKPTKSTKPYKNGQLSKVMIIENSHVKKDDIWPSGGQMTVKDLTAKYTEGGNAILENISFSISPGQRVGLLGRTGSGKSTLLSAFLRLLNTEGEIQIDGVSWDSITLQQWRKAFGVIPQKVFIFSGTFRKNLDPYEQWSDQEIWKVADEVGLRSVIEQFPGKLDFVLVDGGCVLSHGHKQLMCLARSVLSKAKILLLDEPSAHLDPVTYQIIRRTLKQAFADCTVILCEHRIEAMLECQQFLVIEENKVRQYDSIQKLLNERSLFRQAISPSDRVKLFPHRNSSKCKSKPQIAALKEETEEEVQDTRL
ASSAY_COMMENT: Cell Surface Expression-Horse Radish Peroxidase (CSE-HRP) Assay;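 further: co-corrector and positive control are both the same reference corrector at 2 µM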
Type: cell-based
RECORDED_CONDITIONS: with co-corrector (2 μM); maximum at any tested concentration, normalized to on-plate positive control
ASSAY_READOUT: Maximum % activity (with co-corrector)

Query: Return the recorded Maximum % activity (with co-corrector) value; entry: CCC(CC)Cc1cnc(OC)c(CN[C@H]2[C@H](C(C)(C)C)[C@@H](C(=O)O)N(C(=O)C3CCCCC3)[C@H]2c2ccccc2)c1
Response: +++ (≥350)

Query: Identify the reported Maximum % activity (with co-corrector) for the following entry. COc1ccc(C(C)(C)C)cc1CN[C@H]1[C@H](C(C)(C)C)[C@@H](C(=O)O)N(C(=O)C2CCCCC2)[C@H]1c1cccnc1N(C)C
Response: +++ (≥350)

Query: // fetch Maximum % activity (with co-corrector) given entry COc1nc(C(C)(C)C)ccc1CN[C@H]1[C@H](C(C)(C)C)[C@@H](C(=O)O)N(C(=O)C2CCCCO2)[C@H]1c1ccccc1C(C)C (stereo partly drawn)
Response: +++ (≥350)

Query: Answer with the recorded Maximum % activity (with co-corrector) of COc1cc(C(F)(F)F)ccc1CN[C@H]1[C@H](C(C)(C)C)[C@@H](C(=O)O)N(C(=O)C(C)c2ccccc2)[C@H]1c1ccccc1 (relative stereo) only.
Response: +++ (≥350)

Query: Fill in reported Maximum % activity (with co-corrector) for this entry: COc1ccc(SC(F)(F)F)cc1CN[C@H]1[C@H](C(C)(C)C)[C@@H](C(=O)O)N(C(=O)C2CCCCC2)[C@H]1c1ccccc1
Response: +++ (≥350)

Further cases:
Query: Please report Maximum % activity (with co-corrector) for the following compound: COc1ccc(C(F)(F)F)cc1C(C)N[C@@H]1[C@@H](C(C)(C)C)[C@H](C(=O)O)N(C(=O)C2CCCCC2)[C@@H]1c1ccccc1 (mixture of isomers)
Response: ++ (≥150 and <350)

Query: Provide measured Maximum % activity (with co-corrector) value, entry: COc1ccc(-c2ccccc2F)cc1CN[C@H]1[C@H](C(C)(C)C)[C@@H](C(=O)O)N(C(=O)C2CCCCC2)[C@H]1c1ccccc1
Response: +++ (≥350)

Query: Return the recorded Maximum % activity (with co-corrector) value; entry: COc1cc(C(F)(F)F)ccc1CN[C@@H]1[C@@H](C(C)(C)C)[C@H](C(=O)O)N(C(=O)C2CCCCO2)[C@@H]1c1ccccc1N(C)C (mixture of isomers)
Response: +++ (≥350)

Query: Supply measured Maximum % activity (with co-corrector) of COc1ncc(C2CCCCC2)cc1CN[C@H]1[C@H](C(C)(C)C)[C@@H](C(=O)O)N(C(=O)C2CCCCC2)[C@H]1c1ccccc1 in your reply.
Response: +++ (≥350)

Query: Assign Maximum % activity (with co-corrector) to the following record: COc1nc(C(C)(C)C)ccc1CN[C@H]1[C@H](C(C)(C)C)[C@@H](C(=O)O)N(C(=O)OC(C)C)[C@H]1c1cccnc1OC
Response: +++ (≥350)

Query: Supply recorded Maximum % activity (with co-corrector) for COc1cc(C(F)(F)F)ccc1CN[C@@H]1[C@@H](C(C)(C)C)[C@H](C(=O)O)N(C(=O)C2CCC3(CC2)CC3)[C@@H]1c1ccccc1 (racemic) here.
Response: ++ (≥150 and <350)

Query: Complete the entry with Maximum % activity (with co-corrector) for COc1ccc(C(F)(F)F)cc1CN[C@H]1[C@H](C(C)(C)C)[C@@H](C(=O)O)N(C(=O)[C@H]2CCC[C@H](OC)C2)[C@H]1c1ccccc1
Response: +++ (≥350)
